All figures here come from patent US20240100162A1.

# assayed-system: T1, MAGE-B2 peptide on HLA-A*02:01 (human)
# T1 peptide: GVYDGEEHSV
# test-name: multimer staining
measured-parameter: binding result

{"binder": "TCR1 (TCR, V domains shown) Valpha: KQEVTQIPAALSVPEGENLVLNCSFTDSAIYNLQWFRQDPGKGLTSLLLIQSSQREQTSGRLNASLDKSSGRSTLYIAASQPGDSATYLCAAMKTSYDKVIFGPGTSLSVIP Vbeta: GEEVAQTPKHLVRGEGQKAKLYCAPIKGHSYVFWYQQVLKNEFKFLISFQNENVFDETGMPKERFSAKCLPNSPCSLEIQATKLEDSAVYFCASSQGQGGYGYTFGSGTRLTVV", "value-observed": "recognises"}
{"binder": "TCR11 (TCR, V domains shown) Valpha: GEDVEQSLFLSVREGDSSVINCTYTDSSSTYLYWYKQEPGAGLQLLTYIFSNMDMKQDQRLTVLLNKKDKHLSLRIADTQTGDSAIYFCAEKSITSYDKVIFGPGTSLSVIP Vbeta: DVKVTQSSRYLVKRTGEKVFLECVQDMDHENMFWYRQDPGLGLRLIYFSYDVKMKEKGDIPEGYSVSREKKERFSLILESASTNQTSMYLCASTRRGTYGYTFGSGTRLTVV", "value-observed": "recognises"}
{"binder": "TCR7 (TCR, V domains shown) Valpha: GQNIDQPTEMTATEGAIVQINCTYQTSGFNGLFWYQQHAGEAPTFLSYNVLDGLEEKGRFSSFLSRSKGYSYLLLKELQMKDSASYLCAVRRLGGYQKVTFGTGTKLQVIP Vbeta: GAGVSQSPSNKVTEKGKDVELRCDPISGHTALYWYRQRLGQGLEFLIYFQGNSAPDKSGLPSDRFSAERTGESVSTLTIQRTQQEDSAVYLCASSLVTGSSYNEQFFGPGTRLTVL", "value-observed": "recognises"}
